Molecular target: human serum albumin (Homo sapiens)
Sequence (P02768 25-609): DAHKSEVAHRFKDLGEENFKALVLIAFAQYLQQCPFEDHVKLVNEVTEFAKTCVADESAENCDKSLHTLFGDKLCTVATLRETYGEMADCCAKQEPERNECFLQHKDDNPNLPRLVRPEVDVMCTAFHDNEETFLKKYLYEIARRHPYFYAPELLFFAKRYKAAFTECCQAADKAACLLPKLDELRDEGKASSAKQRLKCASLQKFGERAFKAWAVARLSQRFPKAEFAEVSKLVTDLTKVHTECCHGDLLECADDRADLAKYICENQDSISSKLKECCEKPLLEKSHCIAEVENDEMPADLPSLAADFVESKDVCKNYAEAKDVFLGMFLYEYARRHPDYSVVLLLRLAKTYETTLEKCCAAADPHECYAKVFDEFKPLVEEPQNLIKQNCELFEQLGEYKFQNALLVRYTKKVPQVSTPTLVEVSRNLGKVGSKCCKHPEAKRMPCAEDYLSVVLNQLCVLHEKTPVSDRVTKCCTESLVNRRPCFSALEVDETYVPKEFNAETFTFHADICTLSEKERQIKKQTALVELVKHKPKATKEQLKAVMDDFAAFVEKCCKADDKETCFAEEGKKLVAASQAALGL
Experiment: Human serum albumin (HSA) binding assay
Type: in vitro ADME
Conditions: human serum albumin binding
Protocol: HSA binding assay was performed according to the method described by Valko K, et al. The basic principle of the measurements is the determination of gradient retention times of compounds on immobilized HSA column and converting these retention times to the appropriate property values using calibration. The peaks are detected and identified by UV. Calibration sets of compounds are measured before each run for which the HSA binding values are known. […]
Non-standard residues stand in square brackets, D forms with d. Residues, ends and D or L forms follow the SMILES beside them. *: point of attachment. dPhe(4-Cl) = N[C@H](Cc1ccc(Cl)cc1)C(=O)O; dOrn = NCCC[C@@H](N)C(=O)O; tBu = CC(C)(C)*
propertyLabel: % HSA (%)
Give just the number in %; leave the unit off.

compound	targetUnderTest	resultValue
CC[C@H](C)[C@@H]1NC(=O)[C@@H](CC(C)C)NC(=O)[C@H](CC(C)C)NC(=O)[C@H](Cc2c[nH]c3ccccc23)NC(=O)[C@@H](CCCN)NC(=O)[C@H](COC(C)(C)C)NC1=O [Compound 11c] (cyclo(IS(tBu)[dOrn]WL[dL]))	human serum albumin (Homo sapiens)	92.68

Now, please, on to the next compound.
// query Check the records and state % HSA for CC(C)C[C@H]1NC(=O)[C@@H](Cc2ccc(Cl)cc2)NC(=O)[C@H](Cc2c[nH]c3ccccc23)NC(=O)[C@@H](CCCN)NC(=O)[C@H](CC(N)=O)NC(=O)[C@H](C(C)C)NC1=O [Compound 17c] (cyclo(N[dOrn]W[dPhe(4-Cl)][dL]V))
// result 93.83

----------
Assay: Intrinsic clearance (CLint) assay, mouse liver microsomes
Format: in vitro ADME
Conditions: predicted metabolic clearance
Non-standard residues stand in square brackets, D forms with d. Residues, ends and D or L forms follow the SMILES beside them. dPhe(4-Cl) = N[C@H](Cc1ccc(Cl)cc1)C(=O)O; dOrn = NCCC[C@@H](N)C(=O)O
propertyLabel: CLpred Mouse (mL/min/kg)
Give just the number in mL/min/kg; leave the unit off.

// query Check the records and state CLpred Mouse for CC(C)C[C@H]1NC(=O)[C@@H](Cc2ccc(Cl)cc2)NC(=O)[C@H](Cc2c[nH]c3ccccc23)NC(=O)[C@@H](CCCN)NC(=O)[C@H](CC(N)=O)NC(=O)[C@H](C(C)C)NC1=O [Compound 17c] (cyclo(N[dOrn]W[dPhe(4-Cl)][dL]V))
// result 22.60

----------
Experiment: Intrinsic clearance (CLint) assay, human liver microsomes
Assay type: in vitro ADME
Settings: predicted metabolic clearance
Non-standard residues stand in square brackets, D forms with d. Residues, ends and D or L forms follow the SMILES beside them. *: point of attachment. dPhe(4-Cl) = N[C@H](Cc1ccc(Cl)cc1)C(=O)O; dOrn = NCCC[C@@H](N)C(=O)O; tBu = CC(C)(C)*
propertyLabel: CLpred Human (mL/min/kg)
Give just the number in mL/min/kg; leave the unit off.

compound	CLpred Human, mL/min/kg
CC(C)C[C@@H]1NC(=O)[C@H](Cc2c[nH]c3ccccc23)NC(=O)[C@@H](CCCN)NC(=O)[C@H](C)NC(=O)[C@H](C(C)C)NC(=O)[C@@H](CC(C)C)NC1=O [Compound 4c] (cyclo(A[dOrn]WL[dL]V))	6.31
CC[C@H](C)[C@@H]1NC(=O)[C@@H](CC(C)C)NC(=O)[C@H](CC(C)C)NC(=O)[C@H](Cc2c[nH]c3ccccc23)NC(=O)[C@@H](CCCN)NC(=O)[C@H](COC(C)(C)C)NC1=O [Compound 11c] (cyclo(IS(tBu)[dOrn]WL[dL]))	14.70

// query Check the records and state CLpred Human for CC(C)C[C@@H]1NC(=O)[C@@H](Cc2ccc(Cl)cc2)NC(=O)[C@@H](CCCN)NC(=O)[C@H](CC(N)=O)NC(=O)[C@H](C(C)C)NC(=O)[C@@H](CC(C)C)NC1=O [Compound 14c] (cyclo(L[dL]VN[dOrn][dPhe(4-Cl)]))
// result 6.31

----------
Assay: Chrom logD assay
Format: physicochemical
Details: pH 7.4; read-out: Log D
Non-standard residues stand in square brackets, D forms with d. Residues, ends and D or L forms follow the SMILES beside them. dPhe(4-Cl) = N[C@H](Cc1ccc(Cl)cc1)C(=O)O; dOrn = NCCC[C@@H](N)C(=O)O
chromatographic logD listing for selected compounds.
I only need the number, thanks.

Solved entries (count: 5):
compound	resultValue
CC(C)C[C@@H]1NC(=O)[C@@H](CC(C)C)NC(=O)[C@@H](CCCN)NC(=O)[C@H](CC(N)=O)NC(=O)[C@H](C(C)C)NC(=O)[C@H](Cc2c[nH]c3ccccc23)NC1=O [Compound 21c] (cyclo(LWVN[dOrn][dL]))	1.89
CC(C)C[C@@H]1NC(=O)[C@H](Cc2c[nH]c3ccccc23)NC(=O)[C@@H](CCCN)NC(=O)[C@H](CC(N)=O)NC(=O)[C@H](C)NC(=O)[C@@H](CC(C)C)NC1=O [Compound 5c] (cyclo(AN[dOrn]WL[dL]))	1.32
CC(C)C[C@@H]1NC(=O)[C@@H](Cc2ccc(Cl)cc2)NC(=O)[C@@H](CCCN)NC(=O)[C@H](CC(N)=O)NC(=O)[C@H](C(C)C)NC(=O)[C@@H](CC(C)C)NC1=O [Compound 14c] (cyclo(L[dL]VN[dOrn][dPhe(4-Cl)]))	1.9
CC(C)C[C@@H]1NC(=O)[C@H](Cc2c[nH]c3ccccc23)NC(=O)[C@@H](CCCN)NC(=O)[C@H](C)NC(=O)[C@H](C(C)C)NC(=O)[C@@H](CC(C)C)NC1=O [Compound 4c] (cyclo(A[dOrn]WL[dL]V))	2
CC(C)C[C@@H]1NC(=O)[C@H](Cc2c[nH]c3ccccc23)NC(=O)[C@@H](CCCN)NC(=O)[C@@H](CCCN)NC(=O)[C@H](C(C)C)NC(=O)[C@@H](CC(C)C)NC1=O [Compound 9c] (cyclo(L[dL]V[dOrn][dOrn]W))	1.32

// query Check the records and state chromatographic logD for CC(C)C[C@@H]1NC(=O)[C@H](Cc2c[nH]c3ccccc23)NC(=O)[C@@H](CCCN)NC(=O)[C@H](CC(N)=O)NC(=O)[C@H](C(C)C)NC(=O)[C@@H](C)NC1=O [Compound 6c] (cyclo(L[dA]VN[dOrn]W))
// result 1.04

// query Check the records and state chromatographic logD for CC[C@H](C)[C@@H]1NC(=O)[C@@H](CC(C)C)NC(=O)[C@H](CC(C)C)NC(=O)[C@H](Cc2c[nH]c3ccccc23)NC(=O)[C@@H](CCCN)NC(=O)[C@H](CC(N)=O)NC1=O [Compound 7c] (cyclo(IN[dOrn]WL[dL]))
// result 1.83

// query Check the records and state chromatographic logD for CC(C)C[C@H]1NC(=O)[C@H](C)NC(=O)[C@H](Cc2c[nH]c3ccccc23)NC(=O)[C@@H](CCCN)NC(=O)[C@H](CC(N)=O)NC(=O)[C@H](C(C)C)NC1=O [Compound 2c] (cyclo(A[dL]VN[dOrn]W))
// result 0.94

// query Check the records and state chromatographic logD for CC(C)C[C@@H]1NC(=O)[C@H](Cc2c[nH]c3ccccc23)NC(=O)[C@@H](CCCN)NC(=O)[C@H](CC(N)=O)NC(=O)[C@H](C(C)C)NC(=O)[C@@H](Cc2ccc(Cl)cc2)NC1=O [Compound 16c] (cyclo(L[dPhe(4-Cl)]VN[dOrn]W))
// result 1.92

// query Check the records and state chromatographic logD for CC[C@H](C)[C@@H]1NC(=O)[C@@H](CC(C)C)NC(=O)[C@H](CC(C)C)NC(=O)[C@H](Cc2c[nH]c3ccccc23)NC(=O)[C@@H](CCCNC(=N)N)NC(=O)[C@H](CC(N)=O)NC1=O [Compound 13c] (cyclo(IN[dR]WL[dL]))
// result 2.05

----------
Assay: Intrinsic clearance (CLint) assay, human liver microsomes
Assay type: in vitro ADME
Conditions: human liver microsomes
Non-standard residues stand in square brackets, D forms with d. Residues, ends and D or L forms follow the SMILES beside them. dPhe(4-Cl) = N[C@H](Cc1ccc(Cl)cc1)C(=O)O; NMeN = CN[C@@H](CC(N)=O)C(=O)O; NMeL = CN[C@@H](CC(C)C)C(=O)O; dOrn = NCCC[C@@H](N)C(=O)O
propertyLabel: CLint Human (mL/min/g tissue)
Give just the number in mL/min/g tissue; leave the unit off.

Solved entries (count: 4):
molecule	resultValue
CC[C@H](C)[C@@H]1NC(=O)[C@@H](CC(C)C)NC(=O)[C@H](CC(C)C)NC(=O)[C@H](Cc2c[nH]c3ccccc23)NC(=O)[C@@H](CCCN)NC(=O)[C@H](CC(N)=O)NC1=O [Compound 7c] (cyclo(IN[dOrn]WL[dL]))	1.70
CC[C@H](C)[C@@H]1NC(=O)[C@@H](Cc2ccc(Cl)cc2)NC(=O)[C@H](CC(C)C)NC(=O)[C@H](Cc2c[nH]c3ccccc23)NC(=O)[C@@H](CCCN)NC(=O)[C@@H](CCCN)NC1=O [Compound 18c] (cyclo(I[dOrn][dOrn]WL[dPhe(4-Cl)]))	1.06
CC(C)C[C@@H]1NC(=O)[C@H](Cc2c[nH]c3ccccc23)NC(=O)[C@@H](CCCN)NC(=O)[C@@H](CCCN)NC(=O)[C@H](C(C)C)NC(=O)[C@@H](CC(C)C)NC1=O [Compound 9c] (cyclo(L[dL]V[dOrn][dOrn]W))	0.45
CSCC[C@@H]1NC(=O)[C@@H](CC(C)C)NC(=O)[C@H](CC(C)C)NC(=O)[C@H](Cc2c[nH]c3ccccc23)NC(=O)[C@@H](CCCN)NC(=O)[C@H](CC(N)=O)NC1=O [Compound 8c] (cyclo(L[dL]MN[dOrn]W))	1.79

// query Check the records and state CLint Human for CC(C)C[C@H]1NC(=O)[C@H](CC(C)C)N(C)C(=O)[C@H](Cc2c[nH]c3ccccc23)NC(=O)[C@@H](CCCN)NC(=O)[C@H](CC(N)=O)N(C)C(=O)[C@H](C(C)C)NC1=O [Compound 23c] (cyclo([NMeL][dL]V[NMeN][dOrn]W))
// result 3.19
